Please provide measured GI50 for the entries that follow.
- measured target: Ba/F3-EGFR-D770_N771insSVD cells (Homo sapiens, UniProt P00533, DUP768-770, cells depend on it)
- Sequence (P00533 with tags, fused parts or gaps DUP768-770): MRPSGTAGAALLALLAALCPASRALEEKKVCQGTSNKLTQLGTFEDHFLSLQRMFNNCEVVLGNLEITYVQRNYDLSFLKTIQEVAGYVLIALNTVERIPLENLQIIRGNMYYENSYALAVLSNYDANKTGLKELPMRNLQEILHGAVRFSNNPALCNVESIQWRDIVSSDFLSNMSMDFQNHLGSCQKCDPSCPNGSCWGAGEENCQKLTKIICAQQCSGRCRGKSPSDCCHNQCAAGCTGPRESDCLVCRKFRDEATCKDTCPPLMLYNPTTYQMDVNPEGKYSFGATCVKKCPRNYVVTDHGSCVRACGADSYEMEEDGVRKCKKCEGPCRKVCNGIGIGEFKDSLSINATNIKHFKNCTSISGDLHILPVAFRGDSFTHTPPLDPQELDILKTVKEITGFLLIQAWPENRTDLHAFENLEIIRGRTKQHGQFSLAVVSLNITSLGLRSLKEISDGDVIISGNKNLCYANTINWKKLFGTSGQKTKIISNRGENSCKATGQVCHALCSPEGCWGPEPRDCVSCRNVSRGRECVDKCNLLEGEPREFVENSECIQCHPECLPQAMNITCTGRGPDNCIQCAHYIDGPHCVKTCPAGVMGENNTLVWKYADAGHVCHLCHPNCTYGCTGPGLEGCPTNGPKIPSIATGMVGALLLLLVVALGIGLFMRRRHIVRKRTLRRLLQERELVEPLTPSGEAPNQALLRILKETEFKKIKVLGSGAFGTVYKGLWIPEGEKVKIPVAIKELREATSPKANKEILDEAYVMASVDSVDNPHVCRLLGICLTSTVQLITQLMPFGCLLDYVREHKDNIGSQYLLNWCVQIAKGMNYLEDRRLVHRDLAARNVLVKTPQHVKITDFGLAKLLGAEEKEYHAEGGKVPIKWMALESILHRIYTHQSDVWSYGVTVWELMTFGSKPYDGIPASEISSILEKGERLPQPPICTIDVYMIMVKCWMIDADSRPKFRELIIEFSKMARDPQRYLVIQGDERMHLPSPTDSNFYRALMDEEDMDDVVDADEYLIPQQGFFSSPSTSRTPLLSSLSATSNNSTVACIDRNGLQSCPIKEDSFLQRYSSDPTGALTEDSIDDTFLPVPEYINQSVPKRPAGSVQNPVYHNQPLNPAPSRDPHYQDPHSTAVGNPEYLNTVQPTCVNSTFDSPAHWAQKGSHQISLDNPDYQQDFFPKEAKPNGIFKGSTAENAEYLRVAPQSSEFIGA
- assay details: Ba/F3 cell survival assay, EGFR D770_N771insSVD
- Assay type: cell-based
- cond: Cell Titer-Glo, 48 h, without IL-3; Table 4; read-out: BA/F3 (insSVD) IC50

QUERY: Form field: reported GI50 of COc1c(Cl)cccc1Nc1c(-c2ccncc2OCC2COCCO2)[nH]c2c1C(=O)NCC2C (single isomer, unassigned) [Example 35]
RESULT: 54.1 nM

QUERY: Form field: reported GI50 of COc1c(Cl)cccc1Nc1c(-c2ccncc2OCC2CCCCN2C)[nH]c2c1C(=O)N[C@H](C)C2 (mixture of isomers) [Example 83]
RESULT: 24.6 nM

QUERY: Form field: reported GI50 of COc1c(Cl)cccc1Nc1c(-c2ccncc2OCCC(C)OC)[nH]c2c1C(=O)N[C@H](C)C2 (single isomer, unassigned) [Example 121]
RESULT: 8.81 nM

###

- measured target: EGFR with insertion SVD between D770 and N771 (mutEGFR D770_N771insSVD) (Homo sapiens, UniProt P00533, DUP768-770)
- Construct: amino acids R669 to A1210; made in house; host or cells: Sf9 insect cells (baculovirus)
- Sequence (P00533 other isoform, or with tags, fused parts or gaps DUP768-770): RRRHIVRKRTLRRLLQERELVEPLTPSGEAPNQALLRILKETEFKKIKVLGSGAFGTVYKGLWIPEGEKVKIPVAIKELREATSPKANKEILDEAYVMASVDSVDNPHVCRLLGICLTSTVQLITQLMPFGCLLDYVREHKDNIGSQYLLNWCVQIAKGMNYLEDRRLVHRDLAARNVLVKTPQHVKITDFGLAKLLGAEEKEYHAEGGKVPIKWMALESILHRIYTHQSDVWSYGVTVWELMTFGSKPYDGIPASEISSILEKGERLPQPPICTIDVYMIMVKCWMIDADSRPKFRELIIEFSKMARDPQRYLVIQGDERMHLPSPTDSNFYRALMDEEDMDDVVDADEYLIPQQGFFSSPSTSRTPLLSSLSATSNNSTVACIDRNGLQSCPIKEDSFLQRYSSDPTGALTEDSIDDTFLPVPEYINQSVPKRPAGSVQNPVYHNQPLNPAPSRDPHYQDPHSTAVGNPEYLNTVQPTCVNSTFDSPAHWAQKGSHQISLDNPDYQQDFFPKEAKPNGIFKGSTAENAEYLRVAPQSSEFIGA
- assay details: Exon20-Mutant-EGFR(D770_N771insSVD) kinase assay (TR-FRET)
- Format: biochemical
- cond: 2 mM ATP, Table 2
Please provide measured mutEGFR (D770_N771insSVD) kinase assay IC50 for the entries that follow.
Just the number in nM, nothing appended.

QUERY: Form field: reported mutEGFR (D770_N771insSVD) kinase assay IC50 of COc1c(Cl)cccc1Nc1c(-c2ccncc2OCC2(C)CCO2)[nH]c2c1C(=O)NCC2CCO (single isomer, unassigned) [Example 20]
RESULT: 0.316

QUERY: Form field: reported mutEGFR (D770_N771insSVD) kinase assay IC50 of COc1c(Cl)cccc1Nc1c(-c2ccncc2OC[C@@H]2CN(CC(F)F)CCO2)[nH]c2c1C(=O)N[C@H](C)C2
RESULT: 0.172

QUERY: Form field: reported mutEGFR (D770_N771insSVD) kinase assay IC50 of Cc1c(Cl)cccc1Nc1c(-c2ccncc2OCC2COCCO2)[nH]c2c1C(=O)NCC2C (single isomer, unassigned) [Example 69]
RESULT: 0.269

QUERY: Form field: reported mutEGFR (D770_N771insSVD) kinase assay IC50 of COc1c(Cl)cccc1Nc1c(-c2ccncc2OCCC2CCCCO2)[nH]c2c1C(=O)N[C@H](C)C2 (single isomer, unassigned) [Example 88]
RESULT: 0.326

QUERY: Form field: reported mutEGFR (D770_N771insSVD) kinase assay IC50 of COc1c(Cl)cccc1Nc1c(-c2ccncc2OC[C@@H]2CCCO2)[nH]c2c1C(=O)N[C@@H](C)C2 (single isomer, unassigned)
RESULT: 0.113

QUERY: Form field: reported mutEGFR (D770_N771insSVD) kinase assay IC50 of COc1c(Cl)cccc1Nc1c(-c2ccncc2OCC2OCCC2(F)F)[nH]c2c1C(=O)N[C@H](C)C2 (mixture of isomers) [Example 71]
RESULT: 0.186

###

- measured target: Ba/F3-EGFR-D770_N771insSVD cells (Homo sapiens, UniProt P00533, DUP768-770, cells depend on it)
- assay details: Ba/F3 cell survival assay, EGFR D770_N771insSVD
- Assay type: cell-based
- cond: Cell Titer-Glo, 48 h, without IL-3; Table 4; read-out: BA/F3 (insSVD) IC50
reported endpoint: GI50 (nM)
Just the number in nM, nothing appended.

QUERY: Form field: reported GI50 of COc1c(Cl)cccc1Nc1c(-c2ccncc2OCC2COCCO2)[nH]c2c1C(=O)NC1(CCC1)C2 (single isomer, unassigned) [Example 125]
RESULT: 40.4

QUERY: Form field: reported GI50 of Cc1c(Cl)cccc1Nc1c(-c2ccncc2OCC2COCCO2)[nH]c2c1C(=O)NCC2C (single isomer, unassigned) [Example 70]
RESULT: 224

QUERY: Form field: reported GI50 of COc1c(Cl)cccc1Nc1c(-c2ccncc2OC[C@@H]2CCCO2)[nH]c2c1C(=O)NCC2C (single isomer, unassigned) [Example 32]
RESULT: 52.7

QUERY: Form field: reported GI50 of COc1c(Cl)cccc1Nc1c(-c2ccncc2OCCC(C)OC)[nH]c2c1C(=O)N[C@H](C)C2 (single isomer, unassigned) [Example 122]
RESULT: 23.8

QUERY: Form field: reported GI50 of COc1c(Cl)cccc1Nc1c(-c2ccncc2OCC2COCCO2)[nH]c2c1C(=O)N[C@@H]1CCC[C@H]21 (mixture of isomers) [Example 52]
RESULT: 38.9

QUERY: Form field: reported GI50 of COc1c(Cl)cccc1Nc1c(-c2ccncc2OCCC2CCCCO2)[nH]c2c1C(=O)N[C@H](C)C2 (single isomer, unassigned) [Example 88]
RESULT: 70.4

###

- measured target: Ba/F3-EGFR-WT cells (Homo sapiens)
- Sequence (P00533 whole entry, looked up, change not shown): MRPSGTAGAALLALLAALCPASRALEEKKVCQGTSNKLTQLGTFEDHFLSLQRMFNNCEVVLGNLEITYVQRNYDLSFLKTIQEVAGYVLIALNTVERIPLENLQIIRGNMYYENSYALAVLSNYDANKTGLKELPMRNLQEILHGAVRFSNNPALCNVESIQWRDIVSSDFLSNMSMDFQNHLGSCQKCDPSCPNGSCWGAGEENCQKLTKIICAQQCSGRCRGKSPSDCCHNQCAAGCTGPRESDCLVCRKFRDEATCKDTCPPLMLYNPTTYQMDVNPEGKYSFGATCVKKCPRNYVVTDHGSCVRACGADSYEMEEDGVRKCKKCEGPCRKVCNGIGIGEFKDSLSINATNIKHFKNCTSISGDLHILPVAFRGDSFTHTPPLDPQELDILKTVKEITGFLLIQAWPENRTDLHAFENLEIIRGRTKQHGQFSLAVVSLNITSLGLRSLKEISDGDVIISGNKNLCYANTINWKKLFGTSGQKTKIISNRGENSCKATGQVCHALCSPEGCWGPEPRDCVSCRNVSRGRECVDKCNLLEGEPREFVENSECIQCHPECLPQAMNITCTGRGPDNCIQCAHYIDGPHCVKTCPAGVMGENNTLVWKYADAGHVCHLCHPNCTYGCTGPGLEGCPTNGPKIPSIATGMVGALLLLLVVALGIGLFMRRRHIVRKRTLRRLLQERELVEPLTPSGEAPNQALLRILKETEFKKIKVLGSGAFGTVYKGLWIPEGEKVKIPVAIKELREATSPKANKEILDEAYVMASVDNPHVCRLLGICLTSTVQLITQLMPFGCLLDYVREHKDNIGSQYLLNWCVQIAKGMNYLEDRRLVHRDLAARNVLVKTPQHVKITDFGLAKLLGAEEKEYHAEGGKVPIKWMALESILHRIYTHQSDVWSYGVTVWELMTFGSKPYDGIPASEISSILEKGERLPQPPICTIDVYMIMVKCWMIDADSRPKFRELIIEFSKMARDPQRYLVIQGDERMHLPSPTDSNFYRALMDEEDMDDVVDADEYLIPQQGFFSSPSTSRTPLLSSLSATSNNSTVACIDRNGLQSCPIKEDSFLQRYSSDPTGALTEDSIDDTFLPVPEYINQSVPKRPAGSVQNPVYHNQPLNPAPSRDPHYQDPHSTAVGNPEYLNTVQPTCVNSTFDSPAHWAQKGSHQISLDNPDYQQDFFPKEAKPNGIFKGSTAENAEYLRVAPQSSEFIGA
- assay details: Ba/F3 cell survival assay, wild type EGFR
- Type: cell-based
- cond: Cell Titer-Glo, 48 h, with 10 ng/mL EGF; Table 4; read-out: BA/F3 (wild type) IC50
reported endpoint: log10 of GI50 (log10 of the value in nM)
# log10 transformed; quantity=GI50; unit=nM

QUERY: Hello, I am looking for reported log10 of GI50 with Ba/F3-EGFR-WT cells (Homo sapiens) for Cc1c(Cl)cccc1Nc1c(-c2ccncc2OCC2COCCO2)[nH]c2c1C(=O)NCC2C (single isomer, unassigned) [Example 69] . Could you help?
RESULT: 3.34

QUERY: Hello, I am looking for reported log10 of GI50 with Ba/F3-EGFR-WT cells (Homo sapiens) for COc1c(Cl)cccc1Nc1c(-c2ccncc2OCC2CCCCO2)[nH]c2c1C(=O)NCC2C (stereo not shown) [Example 44] . Could you help?
RESULT: 2.77

QUERY: Hello, I am looking for reported log10 of GI50 with Ba/F3-EGFR-WT cells (Homo sapiens) for COc1c(Cl)cccc1Nc1c(-c2ccncc2OCC2CCCCO2)[nH]c2c1C(=O)N[C@H](C)C2 (mixture of isomers) [Example 27] . Could you help?
RESULT: 2.48

QUERY: Hello, I am looking for reported log10 of GI50 with Ba/F3-EGFR-WT cells (Homo sapiens) for Cc1c(Cl)cccc1Nc1c(-c2ccncc2OC[C@@H]2CCCO2)[nH]c2c1C(=O)NCC2C (single isomer, unassigned) [Example 60] . Could you help?
RESULT: 3.03

QUERY: Hello, I am looking for reported log10 of GI50 with Ba/F3-EGFR-WT cells (Homo sapiens) for COc1c(Cl)cccc1Nc1c(-c2ccncc2OCC2COC(C)(C)CO2)[nH]c2c1C(=O)NC1(CC1)C2 (single isomer, unassigned) [Example 134] . Could you help?
RESULT: 2.86

QUERY: Hello, I am looking for reported log10 of GI50 with Ba/F3-EGFR-WT cells (Homo sapiens) for COc1c(Cl)cccc1Nc1c(-c2ccncc2OC[C@@H]2CCCO2)[nH]c2c1C(=O)N[C@@H](C)C2 (single isomer, unassigned) . Could you help?
RESULT: 2.95

QUERY: Hello, I am looking for reported log10 of GI50 with Ba/F3-EGFR-WT cells (Homo sapiens) for COc1c(Cl)cccc1Nc1c(-c2ccncc2OC[C@@H]2CCCO2)[nH]c2c1C(=O)NCC2C (single isomer, unassigned) [Example 31] . Could you help?
RESULT: 3.44

QUERY: Hello, I am looking for reported log10 of GI50 with Ba/F3-EGFR-WT cells (Homo sapiens) for COc1c(Cl)cccc1Nc1c(-c2ccncc2OCC2OCCCC2(F)F)[nH]c2c1C(=O)N[C@H](C)C2 (single isomer, unassigned) [Example 76] . Could you help?
RESULT: 3.39

QUERY: Hello, I am looking for reported log10 of GI50 with Ba/F3-EGFR-WT cells (Homo sapiens) for Cc1c(Cl)cccc1Nc1c(-c2ccncc2OCC2COCCO2)[nH]c2c1C(=O)NCC2C (stereo not shown) [Example 66] . Could you help?
RESULT: 2.88

QUERY: Hello, I am looking for reported log10 of GI50 with Ba/F3-EGFR-WT cells (Homo sapiens) for COc1c(F)cccc1Nc1c(-c2ccncc2OC[C@@H]2CCCO2)[nH]c2c1C(=O)NC(C)C2 (single isomer, unassigned) [Example 9] . Could you help?
RESULT: 2.81

QUERY: Hello, I am looking for reported log10 of GI50 with Ba/F3-EGFR-WT cells (Homo sapiens) for Cc1c(Cl)cccc1Nc1c(-c2ccncc2OC[C@@H]2CN(C)CCO2)[nH]c2c1C(=O)N[C@H](C)C2 . Could you help?
RESULT: 2.74

QUERY: Hello, I am looking for reported log10 of GI50 with Ba/F3-EGFR-WT cells (Homo sapiens) for Cc1c(Cl)cccc1Nc1c(-c2ccncc2OC[C@@H]2CCCO2)[nH]c2c1C(=O)NCC2C (single isomer, unassigned) [Example 59] . Could you help?
RESULT: 2.78

QUERY: Hello, I am looking for reported log10 of GI50 with Ba/F3-EGFR-WT cells (Homo sapiens) for COc1c(Cl)cccc1Nc1c(-c2ccncc2OCC2COCCO2)[nH]c2c1C(=O)N[C@@H]1CCC[C@H]21 (single isomer, unassigned) [Example 54] . Could you help?
RESULT: 2.83

QUERY: Hello, I am looking for reported log10 of GI50 with Ba/F3-EGFR-WT cells (Homo sapiens) for COc1c(Cl)cccc1Nc1c(-c2ccncc2OCCC2CCCCO2)[nH]c2c1C(=O)N[C@H](C)C2 (single isomer, unassigned) [Example 88] . Could you help?
RESULT: 2.80

QUERY: Hello, I am looking for reported log10 of GI50 with Ba/F3-EGFR-WT cells (Homo sapiens) for COc1c(F)cccc1Nc1c(-c2ccncc2OC[C@@H]2CCCO2)[nH]c2c1C(=O)NC(C)C2 (mixture of isomers) [Example 8] . Could you help?
RESULT: 2.79

QUERY: Hello, I am looking for reported log10 of GI50 with Ba/F3-EGFR-WT cells (Homo sapiens) for COc1c(Cl)cccc1Nc1c(-c2ccncc2OC[C@@H]2CCCO2)[nH]c2c1C(=O)NCC2CCO (mixture of isomers) [Example 16] . Could you help?
RESULT: 2.81

QUERY: Hello, I am looking for reported log10 of GI50 with Ba/F3-EGFR-WT cells (Homo sapiens) for COc1c(Cl)cccc1Nc1c(-c2ccncc2OCC2OCCC2(F)F)[nH]c2c1C(=O)N[C@H](C)C2 (mixture of isomers) [Example 71] . Could you help?
RESULT: 2.86

QUERY: Hello, I am looking for reported log10 of GI50 with Ba/F3-EGFR-WT cells (Homo sapiens) for COc1c(Cl)cccc1Nc1c(-c2ccncc2OCC2COCCO2)[nH]c2c1C(=O)N[C@@H]1CCC[C@H]21 (single isomer, unassigned) [Example 53] . Could you help?
RESULT: 2.85

QUERY: Hello, I am looking for reported log10 of GI50 with Ba/F3-EGFR-WT cells (Homo sapiens) for CCc1c(Cl)cccc1Nc1c(-c2ccncc2OC[C@@H]2CCCO2)[nH]c2c1C(=O)N[C@H](C)C2 . Could you help?
RESULT: 2.97

QUERY: Hello, I am looking for reported log10 of GI50 with Ba/F3-EGFR-WT cells (Homo sapiens) for COc1c(Cl)cccc1Nc1c(-c2ccncc2OC[C@@H]2CCCCO2)[nH]c2c1C(=O)NC1(CCC1)C2 . Could you help?
RESULT: 2.61

QUERY: Hello, I am looking for reported log10 of GI50 with Ba/F3-EGFR-WT cells (Homo sapiens) for Cc1c(Cl)cccc1Nc1c(-c2ccncc2OCC2COCCO2)[nH]c2c1C(=O)NCC2C (single isomer, unassigned) [Example 70] . Could you help?
RESULT: 3.67

QUERY: Hello, I am looking for reported log10 of GI50 with Ba/F3-EGFR-WT cells (Homo sapiens) for COc1c(Cl)cccc1Nc1c(-c2ccncc2OCC2CCCCN2C)[nH]c2c1C(=O)N[C@H](C)C2 (single isomer, unassigned) [Example 85] . Could you help?
RESULT: 3.07

QUERY: Hello, I am looking for reported log10 of GI50 with Ba/F3-EGFR-WT cells (Homo sapiens) for Cc1c(Cl)cccc1Nc1c(-c2ccncc2OCC2OCCCC2(F)F)[nH]c2c1C(=O)NCC2C (stereo not shown) . Could you help?
RESULT: 2.73

QUERY: Hello, I am looking for reported log10 of GI50 with Ba/F3-EGFR-WT cells (Homo sapiens) for COc1c(Cl)cccc1Nc1c(-c2ccncc2OCC2COCCO2)[nH]c2c1C(=O)NCC2C (single isomer, unassigned) [Example 37] . Could you help?
RESULT: 3.04

QUERY: Hello, I am looking for reported log10 of GI50 with Ba/F3-EGFR-WT cells (Homo sapiens) for COc1c(Cl)cccc1Nc1c(-c2ccncc2OCC2COC(C)(C)CO2)[nH]c2c1C(=O)NC1(CC1)C2 (stereo not shown) [Example 132] . Could you help?
RESULT: 2.99
